# System: 3D7 mature gametocytes
# ASSAY_METHOD_TEXT: Gametocyte viability luminescence assay, mature gametocytes
# Format: cell-based, Plasmodium falciparum
# PROTOCOL_CONDITIONS: Table S2, CDC42 inhibitors; read-out: IC50, 3D7 mature gametocytes
OBSERVATION_TYPE: IC50 (µM)
The reply should contain only the number, in µM.

Fill in the blank: the reported IC50 of Cc1cc(C)nc(NS(=O)(=O)c2ccc(NC(=S)NC(=O)COc3ccc(Br)cc3Cl)cc2)n1 [ZCL278] is ____. 63.5

----------
# System: P. falciparum asexual parasites, chloroquine-sensitive D10 strain
# ASSAY_METHOD_TEXT: Drug susceptibility assay (pLDH), asexual parasites, D10 strain
# Format: cell-based, Plasmodium falciparum
# PROTOCOL_CONDITIONS: asexual parasites, CQ-sensitive D10 strain, 72 h, pLDH; read-out: Mean IC50 ± SD, D10
pIC50: −log10 of the molar value.
Respond with 1 (yes) for pIC50 values of 5 and above, 0 (no) for values below.

Before answering, review these 4 worked examples.
Dear colleague, could you confirm whether Cc1cc(C)nc(N=C(N)Nc2ccccc2C(F)(F)F)n1 has pIC50 at or above 5? 0 (no)

Would you kindly repeat that for CCN(CC)CCCC(C)Nc1nc(C)cc(Nc2ccc3nc(C)cc(N)c3c2)n1 (stereo not shown) ? 1 (yes)

Try the compound O=C(C#Cc1ccccc1)c1cccc([N+](=O)[O-])c1 1 (yes)

Another compound to check: Cc1cc(/C=c2/sc3nc4ccccc4n3c2=O)c(C)n1-c1ccccc1 0 (no)

Then there is this compound:
Given Cc1cc(C)nc(NS(=O)(=O)c2ccc(NC(=S)NC(=O)COc3ccc(Br)cc3Cl)cc2)n1 , state whether its pIC50 is at least 5. 0 (no)

----------
# System: P. falciparum asexual parasites, chloroquine-sensitive D10 strain
# ASSAY_METHOD_TEXT: Drug susceptibility assay (pLDH), asexual parasites, D10 strain
# Type: cell-based, Plasmodium falciparum
# PROTOCOL_CONDITIONS: read-out: Mean IC50 ± SD, D10; asexual parasites, CQ-sensitive D10 strain, 72 h, pLDH
OBSERVATION_TYPE: pIC50
Field pIC50 (float): negative decimal logarithm of the concentration in molar.

Need pIC50, item CC1CCCN(S(=O)(=O)c2ccc(NC(=O)c3cc(-c4ccccc4O)n[nH]3)cc2)C1 (stereo not shown) [Compound 3] 6.18
